Each entry below lists one item and its recorded melting point value.

Examples with their reported melting point follow.
INSERT INTO results (molecule, recorded_measurement) VALUES
  ('CC(C)(c1cc(F)cc([N+](=O)[O-])c1O)c1cc(Cl)cc([N+](=O)[O-])c1O', '160 °C'),
  ('COc1ccc(Nc2nc(NC3CCCCCC3)nc(Oc3ccc(C(C)=O)cc3Cl)n2)cc1Cl', '186 to 196 °C'),
  ('CCOC(=O)Nc1ccc2oc(-c3ccccc3)cc2c1', '164 °C');

Problem: Tell us which melting point value is on record for CCCCCc1c(C(C)C)nc(C(C)C)c(CO)c1-c1cccc(C)c1
Result: 88 to 90 °C

Problem: Item CN=C1CCCc2scnc21 : provide melting point
Result: 233 to 235 °C

Problem: Supply reported melting point belonging to this molecule: O=c1[nH][nH]c(=O)c2c(O)c3ccc([N+](=O)[O-])cc3nc12
Result: > 400 °C

Problem: Identify the reported melting point for the following entry. CNC(=CC#N)c1ccc2ccccc2c1
Result: 138 °C

Problem: Kindly indicate its recorded melting point. Item: N#CC(CC(=O)O)(c1ccc(F)cc1)c1ccc(F)cc1
Result: 165 to 166 °C

Problem: Give recorded melting point. COCC1CN(c2ccc3cc(O)ccc3c2)C(=O)O1 (stereo not given)
Result: 190 to 191 °C

Problem: Specify reported melting point for the molecule shown: COc1ccc2c(c1)c(C)cc(=O)n2Cc1ccccc1Cl
Result: 177 to 179 °C

----------
Measured melting point by item

INSERT INTO results (compound, recorded_measurement) VALUES
  ('O=C1Nc2ccccc2Nc2ccsc21', '226 °C'),
  ('COc1cc2nc3n(c(=O)c2cc1OC)CS(=O)(=O)N3', '> 300 °C'),
  ('CCOc1ccccc1C1=NN(C(=O)c2cccnc2)CC1', '155 to 157 °C'),
  ('O=Cc1ccc(CCCCCCCC(=O)O)o1', '70 to 72 °C');

Problem: Please look at this compound and report its melting point: COC1CCN(c2c(Cl)cc3c4c(cccc24)C(=O)N(O)C3=O)C1 (stereo not given)
Result: 136 to 142 °C

Problem: Provide measured melting point value, entry: Cc1oc(-c2ccccc2)nc1CCOc1ccc(CC(Nc2ccccc2C(=O)c2ccccc2C(=O)O)C(=O)O)cc1 (stereo not given)
Result: 107 to 110 °C

Problem: Determine from records and report melting point for CCCCS(=O)(=O)Nc1ccccc1COc1cccc2cccnc12
Result: 88 to 89 °C

Problem: State, in one line, measured melting point of CC(=O)Oc1ccc(S(=O)(=O)c2cnc(C)nc2Nc2c(C)cc(C)cc2C)cc1
Result: 142 to 144 °C

Problem: Kindly indicate its recorded melting point. Item: O=S(=O)(c1ccc(Cl)cc1)C(c1cc(F)ccc1F)C(O)CCCCO (stereo not given)
Result: 105 to 107 °C

Problem: State, in one line, measured melting point of Cc1ccc(C(=O)N2CCC(CCN3C(=O)CCc4c(CC5SC(=O)NC5=O)cccc43)CC2)cc1 (stereo not given)
Result: 60 to 65 °C

----------
A collection of compounds and their measured melting point

The following compounds have reported results that may help.
INSERT INTO results (compound, recorded_measurement) VALUES
  ('CCN(CC)CCOc1ccc(C(O)(CC)c2ccccc2)cc1 (stereo not given)', '113 °C'),
  ('Cc1nnc(C)n1NC(=N)c1ccc(Cl)cc1', '303 to 306 °C'),
  ('COc1ccc(/C(=C\C=C\C(=O)O)c2ccccc2)cc1', '184 to 185 °C'),
  ('Cc1nc(N2CCc3ccccc3CC2)c(C#N)c(=O)n1NC(=O)OC(C)(C)C', '150 to 152 °C'),
  ('N#Cc1cc(N2CCCCC2)ccc1[N+](=O)[O-]', '126 to 127 °C');

Problem: Assign melting point to the following record: CC(C)(O)c1cccc(Oc2cccc(-c3c(Cc4ccccc4)cnc4c(C(F)(F)F)cccc34)c2)c1
Result: < 80 °C

Problem: Using known records, supply melting point for Cc1ccc2c(NCc3ccc(NC(=O)C4CCN(Cc5ccc(F)c(F)c5)CC4)cc3)nc(N(C)C)nc2c1
Result: 97 to 99 °C

Problem: Item COc1cccc(C(=O)N2c3ccccc3C(O)CC2C)c1 (stereo not given) : provide melting point
Result: 148 to 149 °C

Problem: Identify measured melting point associated with CC(CNC12CC3CC(CC(C3)C1)C2)N1CCN(c2ccccn2)CC1 (stereo not given)
Result: 67 to 68 °C

Problem: Report melting point for CCOC(=O)CN(C)c1ccc(N=C=S)cc1
Result: 90 to 91 °C

Problem: Item O=c1[nH]c2ccccc2c(=O)n1CCOCCO : provide melting point
Result: 149 to 151 °C

Problem: Dear colleague, please send me the reported melting point for CS(=O)(=O)c1ccc(-c2cnn(-c3ccc(F)cc3)c(=O)c2C2CCCCC2)cc1 when you can.
Result: 231 to 233 °C

Problem: Please indicate melting point recorded for COC(=O)c1cccc(C=CC(=O)O)c1
Result: 189 to 190 °C

Problem: Fill in melting point for record O=C(NCc1ccc(OCc2cccc(F)c2)cc1)C(=NO)c1ccccn1
Result: 146 to 148 °C

Problem: Retrieve melting point measured for COc1cc2nc(NC3CC3)nc(-c3cccc([N+](=O)[O-])c3)c2cc1OC and print it.
Result: 140 to 142 °C

Problem: Name the recorded melting point of the item O=C1OC(=O)C2CC3=C(CC3)CC12 (stereo not given) in your answer.
Result: 81 to 83 °C

----------
Quick reference for melting point among some compounds

Recorded melting point, per entry:
INSERT INTO measurements (compound, parameter_measured, recorded_measurement) VALUES
  ('Cc1cc(SCC(CS(=O)(=O)c2ccc(-c3ccc(Cl)cc3)cc2)C(=O)O)nc(C)n1 (stereo not given)', 'melting point', '170 to 172 °C'),
  ('Nc1ncccc1OCc1cc2c(cc1Cl)OCO2', 'melting point', '100 to 104 °C'),
  ('CCOCCOC(=O)C(=O)Nc1nc(-c2ccc(OC)cc2OC)cs1', 'melting point', '118 to 120 °C'),
  ('COc1ccc2cc(C(C)C(=O)OCc3ccc(OC(=O)OCC[Si](C)(C)C)cc3)ccc2c1 (stereo not given)', 'melting point', '58 to 59 °C'),
  ('C=CCNc1cc(C)nc2cn[nH]c12', 'melting point', '172 to 174 °C');

Problem: Item Nc1c([N+](=O)[O-])sc2cccc(Cl)c12 : provide melting point
Result: 174 to 175 °C

Problem: Specify melting point for COc1ccccc1C1CCN(C[C@@H](CC2CCCCC2)NC(=O)C2CCCCC2)CC1 and stop.
Result: 100 to 103 °C

Problem: Hello, please tell me recorded melting point for this one: CCCCCCCCCCCCCCCCCCOc1cccc(N(CC(=O)OC)CC(=O)OC)c1
Result: 75 to 77 °C

Problem: Tell me its melting point given CC1CSC(=O)C2Cc3ccccc3N2C1=O (stereo not given) as the entry.
Result: 108 to 110 °C

Problem: Assign melting point to the following record: Cc1cc(N)n(C)c2nc(N)nc(=O)c1-2
Result: > 300 °C

----------
Reported melting point values are given for each entry in this list.

Some solved entries appear below for comparison.
INSERT INTO measurements (molecule, parameter_measured, recorded_measurement) VALUES
  ('Cc1cnc2c(c1)CCCC2(C)C(N)=S (stereo not given)', 'melting point', '164 °C'),
  ('COCc1nc(C(C)(C)O)c(C(=O)O)n1Cc1ccc(-c2ccccc2-c2nnn[nH]2)cc1', 'melting point', '187 °C'),
  ('O=S(=O)(c1ccc(Cl)cc1)C1(c2cccnc2Cl)CCCCCC1', 'melting point', '168 to 169 °C');

Problem: For the molecule Cn1nccc(N)c1=O , give its reported melting point.
Result: 191 to 192 °C

Problem: Supply reported melting point belonging to this molecule: O=C(O)c1ccc(S(=O)(=O)Oc2ccc(-c3ccc(-c4c(C(=O)c5ccccc5)oc5ccccc45)cc3)cc2C2CCCC2)cc1O
Result: 105 to 108 °C

Problem: Complete the entry with melting point for COc1ccc(C(=O)Cc2c(Cl)cncc2Cl)c2c(CC(=O)OCc3ccccc3[N+](=O)[O-])coc12
Result: 200 to 201 °C

Problem: Using the record for CCCNC1=NC(c2cccc(-c3cncnc3)c2)(c2ccc(OCCC)c(C)c2)C(=O)N1C (stereo not given) , state its measured melting point.
Result: 64 to 66 °C

Problem: Return reported melting point. Input molecule: CC(C)n1nc(-c2c(N)nc(N)nc2-c2ccccc2)ccc1=O
Result: 258 to 260 °C

Problem: Given the molecule CC(C)C(=O)N(C(=O)N(C)C)c1snc(C(C)C)c1C#N , write its reported melting point.
Result: 127 to 129 °C

Problem: Retrieve melting point measured for O=C1COC(COc2ccccc2Cc2cccs2)CN1Cc1ccccc1 (stereo not given) and print it.
Result: 97 to 99 °C

Problem: Could you please provide reported melting point for CCOC(=O)C(O[Si](C)(C)C)C(O[Si](C)(C)C)c1cc2c(cc1[N+](=O)[O-])OCO2 (stereo not given) ? Thanks!
Result: 73.6 to 79.1 °C

Values were extracted from a melting point compilation (Tetko et al.; mined from patent text by program, amines drawn as free bases though some values may be those of a salt).
